Every entry's value here was drawn from the supplement of paper PMC7411054.

test system: A549-TUBA1B-RELA; assay: phenotypically active (imaging signature differs from DMSO and reproducible) at any of 0.3-9 uM (binary (1 = active, 0 = inactive)); higher = active; conditions: treatment time: 24 h
Labels: active, inactive

{"molecule": "C=C1[C@@H](O)C2C=CC[C@H](C)C(=O)[C@](C)(O)C=C[C@@H](OC(C)=O)[C@]23C(=O)N[C@H](Cc2ccccc2)[C@@H]3[C@@H]1C (stereo partly drawn)", "label.value": "active"}
{"molecule": "O=C1CN=C(c2ccccc2)c2cc(Cl)ccc2N1CC(F)(F)F", "label.value": "inactive"}
{"molecule": "C/C=C1/C[N+]2(C)CC[C@]34C(=C(C=O)[C@H]1C[C@@H]32)Nc1ccccc14 (stereo partly drawn) [Fluorocurarine chloride]", "label.value": "inactive"}
{"molecule": "O=C1C=C2C=C[C@@H]3C[C@@]2(O1)[C@H]1CCCCN31", "label.value": "inactive"}
{"molecule": "CC[C@H]1C[N@@]2CC[C@H]1C[C@H]2[C@@H](O)c1ccnc2ccc(O)cc12 [Hydrocupreine]", "label.value": "inactive"}
{"molecule": "COc1ccc2c(c[n+](C)c3c4cc5c(cc4ccc23)OCO5)c1OC [Chelerythrine chloride]", "label.value": "inactive"}
{"molecule": "C[C@H](N)Cc1ccccc1", "label.value": "active"}
{"molecule": "N[C@H]1C[C@@H]1c1ccccc1", "label.value": "inactive"}
